Tgt: PARP7 (Homo sapiens)
Construct: purchased BPS 80527
Measurement notes: PARP7 in vitro enzyme activity inhibition (chemiluminescence assay, selectivity test)
Format: biochemical
Applied conditions: 6.25 nM of PARP7 solution, method of test example 1; read-out: PARP7 activity inhibition IC50
Protocol: Following the method in test example 1, the IC50 value of the inhibition of each compound on PARP7 activity were detected and obtained. Reference was made to the method in test example 1, except that the 6.25 nM of PARP7 solution in the ribosylation reaction step was replaced with a 5 nM of PARP1 solution or a 5 nM of PARP2. Similar to the 6.25 nM of PARP7 solution, the 5 nM of PARP1 solution and 5 nM of PARP2 solution were also formulated and obtained by using 1× Assay buffer.
Measured endpoint: IC50

Compound | Tgt | IC50
CC(CCCNC(=O)c1cnc(-c2ncc(C(F)(F)F)cn2)cn1)Nc1cn[nH]c(=O)c1C(F)(F)F (stereo not shown) | PARP7 (Homo sapiens) | < 3 nM
CC1(C)CN(C(=O)C(CCCNC(=O)c2cnc(-c3ncc(C(F)(F)F)cn3)cn2)Nc2cn[nH]c(=O)c2C(F)(F)F)C1 (stereo not shown) | PARP7 (Homo sapiens) | 3 to 10 nM
CNC(=O)[C@@H](CCCNC(=O)c1ccc(-c2ncc(C(F)(F)F)s2)cc1)Nc1cn[nH]c(=O)c1C(F)(F)F | PARP7 (Homo sapiens) | < 3 nM
CC1(C)CN(C(=O)C(CCCNC(=O)c2ccc(-c3ncc(C(F)(F)F)s3)cc2)Nc2cn[nH]c(=O)c2C(F)(F)F)C1 (stereo not shown) | PARP7 (Homo sapiens) | < 3 nM
CCNC(=O)C(CCCNC(=O)c1ccc(-c2ncc(C(F)(F)F)s2)cc1)Nc1cn[nH]c(=O)c1C(F)(F)F (stereo not shown) | PARP7 (Homo sapiens) | < 3 nM
CN(C(=O)[C@@H](CCCNC(=O)c1ccc(-c2ncc(C(F)(F)F)s2)cc1)Nc1cn[nH]c(=O)c1C(F)(F)F)C1CC1 | PARP7 (Homo sapiens) | 3 to 10 nM

The recorded IC50 for O=C(NCCCC(Nc1cn[nH]c(=O)c1C(F)(F)F)C(=O)N1CCCC1)c1ccc(-c2ncc(C(F)(F)F)s2)cc1 (stereo not shown) is < 3 nM

----------
Tgt: PARP7 (Homo sapiens)
Construct: purchased BPS 80527
Sequence (Q7Z3E1 1-657): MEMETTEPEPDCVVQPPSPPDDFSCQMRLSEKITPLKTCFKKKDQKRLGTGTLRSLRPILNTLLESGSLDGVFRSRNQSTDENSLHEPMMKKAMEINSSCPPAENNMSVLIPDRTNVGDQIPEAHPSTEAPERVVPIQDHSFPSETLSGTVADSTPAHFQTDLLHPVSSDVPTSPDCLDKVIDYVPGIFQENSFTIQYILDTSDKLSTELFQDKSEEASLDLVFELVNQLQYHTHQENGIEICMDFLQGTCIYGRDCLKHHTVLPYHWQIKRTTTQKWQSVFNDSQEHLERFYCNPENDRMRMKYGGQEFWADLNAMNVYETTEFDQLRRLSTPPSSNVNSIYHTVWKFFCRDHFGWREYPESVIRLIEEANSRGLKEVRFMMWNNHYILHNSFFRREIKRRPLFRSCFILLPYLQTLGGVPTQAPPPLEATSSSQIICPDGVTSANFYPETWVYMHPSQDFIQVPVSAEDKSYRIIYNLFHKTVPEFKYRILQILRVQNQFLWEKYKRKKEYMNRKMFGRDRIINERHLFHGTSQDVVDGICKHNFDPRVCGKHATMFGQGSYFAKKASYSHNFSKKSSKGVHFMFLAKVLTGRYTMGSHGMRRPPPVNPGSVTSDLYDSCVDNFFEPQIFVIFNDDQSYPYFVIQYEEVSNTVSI
Measurement notes: PARP7 TR-FRET binding inhibition (displacement of probe RBN011147)
Applied conditions: TR-FRET, Biotin-labeled probe RBN011147; read-out: PARP7 binding inhibition IC50
Measured endpoint: IC50

Observe how each entry below is paired with its result.
Compound | IC50
CC(CCCNC(=O)c1ccc(-c2ncc(N(C)C)s2)cc1)Nc1cn[nH]c(=O)c1C(F)(F)F (stereo not shown) [Example 57] | < 10 nM
CC(CCNC(=O)c1n[nH]c2c1CCN(c1ncc(C(F)(F)F)cn1)C2)Nc1cn[nH]c(=O)c1C(F)(F)F (stereo not shown) [Example 8] | 10 to 30 nM
CC(CCCNC(=O)c1ccc(-n2cc(C(F)(F)F)cn2)cc1)Nc1cn[nH]c(=O)c1C(F)(F)F (stereo not shown) [Example 61] | < 10 nM

IC50 recorded for this compound, Cc1c(CCC(=O)Nc2ccc(-c3ncc(C(F)(F)F)cn3)cc2)c[nH]c(=O)c1C(F)(F)F [Example 10] , is < 10 nM

----------
System: NCI-H1373 cells
Measurement notes: Inhibition on NCI-H1373 cell proliferation (Cell-Titer-Glo)
Format: cell-based
Applied conditions: Homo sapiens, 144 h; NCI-H1373 cells, incubation for 6 days, Cell-Titer-Glo; read-out: NCI-H1373 cell proliferation inhibition IC50
Measured endpoint: IC50

Molecule | IC50
COC1(C)CN(C(=O)[C@@H](CCCNC(=O)c2ccc(-c3ncc(C(F)(F)F)s3)cc2)Nc2cn[nH]c(=O)c2C(F)(F)F)C1 | 1000 to 3000 nM
CC(CCCNC(=O)c1ccc(-c2csc(C(F)(F)F)n2)cc1)Nc1cn[nH]c(=O)c1C(F)(F)F (stereo not shown) | > 3000 nM
Cc1cnc(-c2cnc(C(=O)NCCCC(C)Nc3cn[nH]c(=O)c3C(F)(F)F)cn2)s1 (stereo not shown) | > 3000 nM

Please examine the following record next.
Kindly note the recorded IC50 for CC1(C)CN(C(=O)C(CCCNC(=O)c2ccc(-c3ncc(C(F)(F)F)s3)cc2)Nc2cn[nH]c(=O)c2C(F)(F)F)C1 (stereo not shown) , which is 300 to 1000 nM

----------
Reported IC50 values follow for various compounds
Tgt: PARP7 (Homo sapiens, UniProt Q7Z3E1)
Construct: purchased BPS 80527
Measurement notes: PARP7 in vitro enzyme activity inhibition (chemiluminescence assay, selectivity test)
Type: biochemical
Applied conditions: 6.25 nM of PARP7 solution, method of test example 1; read-out: PARP7 activity inhibition IC50

Example entries begin here.
Smiles entry | IC50
O=C(NCCC[C@@H](Nc1cn[nH]c(=O)c1C(F)(F)F)C(=O)Nc1ccccn1)c1ccc(-c2ncc(C(F)(F)F)s2)cc1 | < 3 nM
O=C(NCCC[C@@H](Nc1cn[nH]c(=O)c1C(F)(F)F)C(=O)NC1CCC1)c1ccc(-c2ncc(C(F)(F)F)s2)cc1 | 3 to 10 nM

Okay, next one:
Reported IC50 for `O=C(CCc1c[nH]c(=O)c(C(F)(F)F)c1N1CC2(CCC2)C1)Nc1ccc(-c2ncc(C(F)(F)F)s2)cn1` was < 3 nM

----------
IC50 values, listed per item
Tgt: PARP7 (Homo sapiens)
Construct: purchased BPS 80527
Measurement notes: PARP7 TR-FRET binding inhibition (displacement of probe RBN011147)
Applied conditions: TR-FRET, Biotin-labeled probe RBN011147; read-out: PARP7 binding inhibition IC50

Compound | IC50
CC(CCCNC(=O)c1ccc(-c2ncc(C#N)cc2F)cc1)Nc1cn[nH]c(=O)c1C(F)(F)F (stereo not shown) [Example 67] | < 10 nM
O=C(NCCCC(Nc1cn[nH]c(=O)c1C(F)(F)F)C(=O)NC1CCCOC1)c1ccc(-c2ncc(C(F)(F)F)s2)cc1 (stereo not shown) [Example 235] | < 10 nM
O=C(NCCC1CC(OC2CC2)CN1c1cn[nH]c(=O)c1C(F)(F)F)c1ccc(-c2ncc(C(F)(F)F)s2)cn1 (stereo not shown) [Example 138] | > 100 nM
CC(CCCn1ccc2cc(-c3ncc(C(F)(F)F)cn3)cnc2c1=O)Nc1cn[nH]c(=O)c1C(F)(F)F (stereo not shown) [Example 250] | 10 to 30 nM
CC(CCCNC(=O)c1ccc(-c2ncc(C(F)(F)F)cn2)cc1O)Nc1cn[nH]c(=O)c1C(F)(F)F (stereo not shown) [Example 1] | < 10 nM

The measured IC50 associated with COc1cnc(-c2ccc(C(=O)NCCCC(C)Nc3cn[nH]c(=O)c3C(F)(F)F)cc2)s1 (stereo not shown) [Example 22] reads 10 to 30 nM

Just so you know, measured IC50 for O=C(NCCC[C@@H](Nc1cn[nH]c(=O)c1C(F)(F)F)C(=O)NC1CCC1)c1ccc(-c2ncc(C(F)(F)F)s2)cc1 [Example 228] came out at < 10 nM

----------
// values below are reported pIC50
Tgt: PARP7 (Homo sapiens)
Construct: purchased BPS 80527
Measurement notes: PARP7 TR-FRET binding inhibition (displacement of probe RBN011147)
Applied conditions: read-out: PARP7 binding inhibition IC50; TR-FRET, Biotin-labeled probe RBN011147
pIC50: −log10 of the molar value.

Guide cases for pIC50, answers given:
Smiles entry | Measured endpoint | Result
C[C@@H](CCCNC(=O)c1ccc(-c2nccs2)cn1)Nc1cn[nH]c(=O)c1C(F)(F)F | pIC50 | 7.52 to 8.00
O=C(CCc1c[nH]c(=O)c(C(F)(F)F)c1N1CC2(CCC2)C1)Nc1ccc(-c2ncc(C(F)(F)F)cn2)cn1 | pIC50 | > 8.00

Let's switch to this compound now.
For record `O=C(NCCC[C@H]1CCN1c1cn[nH]c(=O)c1C(F)(F)F)c1cnc(-c2ncc(C(F)(F)F)cn2)cn1` the listed pIC50 is < 7.00
